src = PubChem BioAssay (NCI)

- Experiment Notes: NCI Yeast Anticancer Drug Screen. Data for the rad50 strain (AID 155);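 further: 0% = growth of vehicle-only cultures of the same strain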
- Details: S. cerevisiae rad50 strain growth inhibition; at 50.0 µM; active compounds read high
The panel holds about 79,000 compounds, 15% with a hit somewhere; the sample as a whole holds those more often.
Value Kind: growth inhibition (%)
# number only, unit % dropped from output

Record CC(C)(C)c1ccc2c(c1)C(O)(C#Cc1ccccc1)c1ccccc1C2(O)C#Cc1ccccc1 (stereo not given) . Reported growth inhibition: 11.6

For record `COC(=O)[C@H]1[C@H]2C[C@@H]3c4[nH]c5ccccc5c4CCN3C[C@H]2C[C@@H](OC(=O)c2cc(OC)c(OC)c(OC)c2)[C@@H]1OC` the listed growth inhibition is 15.8

Summary for this molecule, `COc1ccc(CCN(C)C2c3ccccc3C=Cc3ccccc32)cc1OC` : growth inhibition is 30.5

Just so you know, measured growth inhibition for COC1=NC2(C)C(C)=C(c3ccccc3)C1(C)c1ccccc12 (stereo not given) came out at -12.2

Summary for this molecule, `CC(=O)NCCc1[nH]cnc1N=Nc1ccc(Br)cc1` : growth inhibition is 0.95

###

- Experiment Notes: NCI Yeast Anticancer Drug Screen. Data for the mlh1 rad18 strain (AID 175)
- Details: S. cerevisiae mlh1 rad18 strain growth inhibition; at 50.0 µM
About 79,000 compounds went through this panel and 15% of them were active in at least one assay; those are over-represented in the sample as a whole. Activity calls are given as the source filed them. Cut-off read from the data, not from the text of the source: active = growth inhibition above about 70%; inactive = the rest.
# valid calls are y (active), n (inactive); nothing else

# lookup: test call for `C(=N\c1nnc2ccccn12)/c1ccccc1`
n

Which outcome did this test record for the compound `CNCc1cccc(OC)c1OC` ?
n

Hello, I am checking results. What call was entered for `C(=C(c1ccccc1)c1ccccc1)=C(c1ccccc1)c1ccccc1` ?
n

Any idea what this test logged for `C(=C\c1ncc(-c2ccccc2)cc1-c1ccccc1)/c1ccccc1` ?
n

Each compound tested received a call. Report the one for `O/N=C1/CCCc2nonc21` .
n

GET /call?item= `O=[N+]([O-])c1ccc(S(=O)(=O)N/N=C/c2ccco2)cc1` returns the recorded outcome of this test.
n

Recorded test call requested for `CCNC(=O)OCCN(CCOC(=O)NCC)CCc1ccccc1`
n

Short answer needed: outcome of this test for `CN=C(N/N=C/c1ccccc1)N(C)C` ?
n

Which outcome did this test record for the compound NC(=O)C(=O)N/N=C(\CC1(O)C(=O)Nc2ccccc21)c1ccc2ccccc2c1 (stereo unspecified) ?
n

Look up the recorded call for `COc1ccc(C(=O)OCc2ccccc2CN2CCOCC2)cc1` in this test.
n

Test call, this compound: `CCOC(=O)C(C(=O)OCC)=C1N[C@H](C(=O)OCC)CS1`
n

Name the outcome recorded for C=C(CCCC(C)OC(=O)NC(C)c1cccc2ccccc12)[Si](C)(C)C (stereo unspecified) in the assay.
n

So what was the verdict on O=C(COC(=O)C(CC(=O)c1ccccc1)Cc1ccccc1)c1ccc(-c2ccccc2)cc1 (stereo unspecified) in this test?
n

Per the assay record, what outcome was assigned to `O=C(Oc1ccc[nH]c1=O)C1CCC1` ?
n

Which outcome was assigned to `CCCCCCNC(=O)NC` in this test?
n

What classification did `CCOc1ccccc1/C=C1\CCc2ccccc2C1=O` end up with in this test?
n

Can you look up the reported call for `O=C(C[N+]1(c2ccccc2)CCOCC1)c1ccccc1` for me?
n

# outcome recorded in this test, key = `CCCCCCCCCCCCCCCCCC(=O)N1C(=O)c2ccccc2C1=O`
n

Kindly provide the recorded test outcome for the following compound: `Cc1cc(COCCN(C)C)on1`
n

What classification did `O=C(O)C(Oc1ccccc1)Oc1ccccc1` end up with in this test?
n

Recorded test outcome, item `Cc1c2c(cc3c1[nH]c1ccccc13)C(c1ccc(F)cc1)=NCC2`
n

Which outcome was entered for the compound `N=N/C(=C\c1c(O)[nH]c2ccccc12)c1ccccc1` in this test?
n

Returns: the outcome recorded for `O=C1NC(=O)C(=CN2C(=O)/C(=C/c3ccc(O)cc3)SC2=S)C(=O)N1` in this assay.
n

Kindly provide the recorded test outcome for the following compound: CCCCCCCCC/C=C1\CCC(CN2CCOCC2)C1=O (stereo unspecified)
y

Hi team, can someone confirm the assay call for CCCCCc1ccccc1OCC1CO1 (stereo unspecified) ?
n

Outcome? `S=C1NNC(=S)NN1`
n

###

- Experiment Notes: NCI Yeast Anticancer Drug Screen. Data for the cln2 rad14 strain (AID 165);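 further: 0% = growth equal to vehicle treated cultures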
- Details: S. cerevisiae cln2 rad14 strain, at 50.0 µM, active compounds read high
This is part of a sample that, as a whole, favours compounds with a hit. Of some 79,000 tested, about 15% had one in any assay.
Value Kind: growth inhibition (%)
Return type: number; implicit unit %.

Consider `[Cl][Eu]([Cl])[Cl]` . Its measured growth inhibition is 42.9

Measured growth inhibition of `CN(/N=C1\C(=O)Nc2ccccc21)c1ccccc1` : -37.9

Note to self: growth inhibition recorded for `CCc1cc(O)cc(C)c1Cl` was 46.4

Please fill in: growth inhibition reported for `CC(=O)Nc1nc(NC(C)=O)c2nc(C)cnc2n1` = 24.4

The measured growth inhibition associated with `C1=NCCN=Cc2ccccc2O/N=N/Oc2ccccc21` reads -44.4

GET /value?item= `Cc1ccc(S(=O)(=O)Nc2ccc3ncsc3c2[N+](=O)[O-])cc1` &field=growth inhibition returns 98.2

Noted for `CCc1ccc(C(=O)CN2CCCc3ccccc32)cc1` : its growth inhibition reads -17.2

Entry `O/N=C1/CCSc2ccccc21` ; growth inhibition = 16.2

Short answer for CC1=CC(O/C=C2\C(=O)OC3C=CCC23)OC1=O (stereo unspecified) : growth inhibition was 4.05

# growth inhibition (molecule: `CCCCCCCCCCCCCCCCOc1ccc(C(=O)O)cc1` ) is 8.35

Form: molecule = `Cc1ccc(C(N)=Nc2ccccc2)cc1` ; growth inhibition = -2.85

Noted for CCCCCCCCCCCCCCCC(=O)OCC(O)CO (stereo unspecified) : its growth inhibition reads -167

Documented growth inhibition of `COC(=O)c1ccccc1N(C(=O)c1ccccc1)c1ccccc1C` : 10.4

The reported value for `N=C(N)c1cccc(NC(=O)CCc2ccccc2)c1` in terms of growth inhibition is -29.1

Lab note: measured growth inhibition of COC1=C(C)C(=O)C2=C(C1=O)C1C3CC4=C(C(=O)C(OC)=C(C)C4=O)C(CNC(=O)C(C)O)N3C(C#N)C(C2)N1C (stereo unspecified) was 32.8

Note to self: growth inhibition recorded for O=C(c1ccccc1)C12CCCC(CC1)C2 (stereo unspecified) was -37.5

`CCOC(=O)C(Cc1ccccc1C)(NC(C)=O)C(=O)OCC` has a reported growth inhibition of 4.1

Recorded growth inhibition (molecule `COC(=O)c1nn(-c2ccccc2)c(=O)cc1N=[N+]=[N-]` ): -12.8

Reported growth inhibition of CCCCON1C[C@H](OC(C)=O)C(OC(C)=O)[C@H](OC(C)=O)C1 (stereo partly specified) : -10.4

Form: molecule = CC(NC(=O)NCCCl)c1cccc2ccccc12 (stereo unspecified) ; growth inhibition = 44.2

Quick note, growth inhibition for `Cc1ncc([N+](=O)[O-])n1CCNCCCCn1ccnc1[N+](=O)[O-]` landed at -23.7

molecule `O=C(Cc1ccccc1)NC(=O)Nc1ccccc1` , growth inhibition observed: -0.15

Entry under test: COc1ccc(C(O)c2ccccn2)cc1 (stereo unspecified) . Its growth inhibition was -34.8

Reported growth inhibition of `COC(=O)/C(C)=C1\C=C(C)CC(C)(C)C1` : 1

Reported growth inhibition ( `Cn1c(=O)c2[nH]c(SCC(=O)O)nc2n(C)c1=O` ) = -21.4

Reported growth inhibition ( `CCCCCCCCc1cc(CN(C)C)c(O)c(C(C)(C)CC(C)(C)C)c1` ) = 16.7

###

Please provide measured growth inhibition for the entries that follow.
- Experiment Notes: NCI Yeast Anticancer Drug Screen. Data for the bub3 strain (AID 167)
- Details: S. cerevisiae bub3 mutant strain, at 50.0 µM, active compounds read high
About 79,000 compounds went through this panel and 15% of them were active in at least one assay; those are over-represented in the sample as a whole.
Unit % implied. Number only.

growth inhibition reading for `C(=C\c1ccc(OCc2ccccc2)cc1)/c1ccc(OCc2ccccc2)cc1` : -24.6

Record `O=S(=O)(c1ccc(NC(=S)N2CCOCC2)cc1)N1CCCCC1` , field growth inhibition: -5.95

Sure, the documented growth inhibition for `CCCCCCNC(=O)C1=C(C)NC(C)=C(C(=O)NCCCCCC)C1` is 6.8

Briefly, growth inhibition measured for `c1cnc2c(c1)-n1cccc1C1(CCOCC1)NN2` : -13.3

Noted for `CCCC(C(=O)O)(c1ccccc1)c1ccccc1` : its growth inhibition reads 7.5

Note to self: growth inhibition recorded for `O=C(Cc1ccccc1)Nc1ccccc1` was -7.55

Per the record, CC/C=C\CCOC(=O)C1OC1c1ccccc1 (configuration not stated) has growth inhibition of 0

Field growth inhibition (entry `O=C(N/C(=C\c1ccccc1Cl)c1nc2ccccc2[nH]1)c1ccccc1` ) reads 38.9

// growth inhibition lookup, molecule = `COC(=O)C1=CCOc2c1c(C(=O)OC)nn2C` , result: -11.2

Input `Cc1cc([N+](=O)[O-])ccc1NC(=O)OC(C)C` . Output growth inhibition: 1.35

// growth inhibition lookup, molecule = `COc1cc(-c2oc3c(OC)c(OC)cc(O)c3c(=O)c2OC)ccc1O` , result: -9.05

Data point: `CC1=C(C(=O)NCc2ccccc2)C(/C=C/c2ccccc2)C(C(=O)NCc2ccccc2)=C(C)N1` ; growth inhibition = 4.55
